- target: human S1P1 receptor (Homo sapiens, UniProt P21453)
- Construct: membranes used
- Sequence (P21453 whole entry): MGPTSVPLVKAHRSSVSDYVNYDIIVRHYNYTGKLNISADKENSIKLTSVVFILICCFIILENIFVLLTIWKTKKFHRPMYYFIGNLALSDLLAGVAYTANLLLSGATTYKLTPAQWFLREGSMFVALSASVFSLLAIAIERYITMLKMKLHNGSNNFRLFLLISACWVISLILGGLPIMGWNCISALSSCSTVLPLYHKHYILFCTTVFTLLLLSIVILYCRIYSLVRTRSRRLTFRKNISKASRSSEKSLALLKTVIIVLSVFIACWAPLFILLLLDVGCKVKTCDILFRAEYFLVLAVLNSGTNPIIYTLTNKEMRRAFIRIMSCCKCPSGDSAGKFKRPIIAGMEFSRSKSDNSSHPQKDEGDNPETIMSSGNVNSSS
- assay: GTP γ35S binding assay for S1P1 activity
- condition_label: membranes, 30 min at 25° C., read-out: S1P1 EC50 (Activity potency: S1P1 receptor from GTP γ35S)
pEC50: −log10 of the molar value.
assay_metric: pEC50

- O=P(O)(O)CCCNCc1ccc(OCCCCc2ccc(F)cc2)c(-c2ccco2)c1: 7.00

I = O=P(O)(O)CCCNCc1ccc(OCCCCCc2cccc(C(F)(F)F)c2)c(-c2ccco2)c1
II = O=P(O)(O)CCCNCc1ccc(OCCCCCc2cccc(Cl)c2)c(-c2ccco2)c1
Query: Of I and II , which carries the smaller reported pEC50 figure? Respond with the label that goes with your answer.
Response: I
